- testTarget: human DGKα (Homo sapiens (Human), UniProt P23743)
- Sequence (P23743 other isoform, or with tags, fused parts or gaps): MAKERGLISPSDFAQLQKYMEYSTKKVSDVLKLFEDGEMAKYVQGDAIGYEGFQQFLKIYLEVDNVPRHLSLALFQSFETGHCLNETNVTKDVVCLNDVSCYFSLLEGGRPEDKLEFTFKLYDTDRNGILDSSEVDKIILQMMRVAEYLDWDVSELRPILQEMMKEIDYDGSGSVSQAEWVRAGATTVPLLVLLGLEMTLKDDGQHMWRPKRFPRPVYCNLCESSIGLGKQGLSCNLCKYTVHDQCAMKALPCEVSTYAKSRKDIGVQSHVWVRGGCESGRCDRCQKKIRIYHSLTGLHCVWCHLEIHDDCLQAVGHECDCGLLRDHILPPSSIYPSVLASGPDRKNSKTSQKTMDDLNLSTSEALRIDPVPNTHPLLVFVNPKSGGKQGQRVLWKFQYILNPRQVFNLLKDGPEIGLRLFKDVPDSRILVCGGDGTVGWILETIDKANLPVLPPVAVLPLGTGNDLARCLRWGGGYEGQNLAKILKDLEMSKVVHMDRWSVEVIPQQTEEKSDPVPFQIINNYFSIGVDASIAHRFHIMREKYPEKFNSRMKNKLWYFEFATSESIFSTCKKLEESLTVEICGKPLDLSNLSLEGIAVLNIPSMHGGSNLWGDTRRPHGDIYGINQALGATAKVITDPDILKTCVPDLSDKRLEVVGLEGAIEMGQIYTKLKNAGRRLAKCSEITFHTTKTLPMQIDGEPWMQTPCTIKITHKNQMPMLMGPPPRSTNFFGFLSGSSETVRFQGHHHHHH
- assayRemarks: biochemical
- assayConditions: detergent/lipid micelle substrate; read-out: DGKα IC50
// reported pIC50 per item
Here pIC50 is given on a logarithmic scale as minus log10 of the concentration in mol/L.

> print(dat)
                                   molecule  observedresult
1  C=CCOc1cccc(C)c1C(c1ccc(F)cc1)N1CCN(c2c([N+](=O)[O-])c(=O)n(C)c3ccc(Br)nc23)CC1 (single isomer, unassigned) [Example 96]            4.06

Query: Missing value: pIC50, human DGKα (Homo sapiens (Human), UniProt P23743), entry Cn1c(=O)c(C#N)c(N2CCN(Cc3cc(Cl)ccc3O)CC2)c2nc(Br)ccc21 [Example 367] . Fill in?
Reply: 6.66

Query: Find pIC50 (human DGKα (Homo sapiens (Human), UniProt P23743)) for the entry CC(c1ccc(F)cc1)N1CCN(c2c(C#N)c(=O)n(C)c3ccc(Cl)nc23)CC1 (single isomer, unassigned) [Example 388]
Reply: 7.28

====

- testTarget: UniProtKB P23743
- assayRemarks: biochemical
- assayConditions: detergent/lipid micelle substrate; read-out: DGKα IC50
property: IC50 (nM)
Could you give me the number in nM? Just the number is fine.

> print(dat)
                                   molecule  observedresult
1  Cn1c(=O)c(C#N)c(N2CCN(Cc3ccc(C#N)cc3F)CC2)c2nc(Cl)ccc21             380

Query: Fill in: IC50 of N#CCn1c(=O)c(C#N)c(N2CCN(C(c3ccc(F)cc3)c3ccc(F)cc3)CC2)c2nc(Br)ccc21 is ___
Reply: 180000

Query: Sample Cn1c(=O)c(C#N)c(N2CCN(Cc3ccccc3F)CC2)c2nc(Br)ccc21 — what was its IC50?
Reply: 400

Query: // returns reported IC50 for input COc1cc(C#N)ccc1CN1CCN(c2c(C#N)c(=O)n(C)c3ccc(Cl)nc23)CC1
Reply: 770

Query: Return reported IC50; argument: Cn1c(=O)c(C#N)c(N2CCN(Cc3cc(O)cc(F)c3)CC2)c2nc(Cl)ccc21
Reply: 1100

Query: Using the record for Cn1c(=O)c(C#N)c(N2CCN(Cc3cc(OC(F)(F)F)ccc3O)CC2)c2nc(Cl)ccc21 , report its IC50.
Reply: 160

Query: Recorded IC50 of COc1ccccc1C(c1ccc(F)cc1)N1CCN(c2c(C#N)c(=O)n(C)c3ccc(Br)nc23)CC1 (centres unmarked) [Example 12] , please.
Reply: 1000

Query: Quick one: IC50 of CC(c1ccc(F)cc1)N1CCN(c2c(C#N)c(=O)n(C)c3ccc(Br)nc23)CC1 (racemic) [Example 22] ?
Reply: 70

====

- testTarget: human DGKα (Homo sapiens (Human))
- assayRemarks: DGKα LIPGLO assay (extruded liposome substrate)
- Assay type: biochemical
This section presents molecules with their documented pIC50 values.
Scale: negative log10 of molar concentration, which is what pIC50 denotes.

Solved cases below.
molecule	testTarget	observedResult
Cn1c(=O)c(C#N)c(N2CCN(Cc3cccc4ccccc34)CC2)c2nc(Cl)ccc21	human DGKα (Homo sapiens (Human))	5.47
C#CCn1c(=O)c([N+](=O)[O-])c(N2CCN(C(C)c3ccc(F)cc3)CC2)c2nc(C#N)ccc21 (single isomer, unassigned) [Example 136]	human DGKα (Homo sapiens (Human))	6.10
COc1cccnc1C(c1ccc(F)cc1)N1CCN(c2c(C#N)c(=O)n(C)c3ccc(C#N)nc23)CC1 (stereo not shown)	human DGKα (Homo sapiens (Human))	5.27
Cc1ccc(CN2CCN(c3c(C#N)c(=O)n(C)c4ccc(Cl)nc34)CC2)c(F)c1	human DGKα (Homo sapiens (Human))	5.66
Cc1cccc(CN2CCN(c3c(C#N)c(=O)n(C)c4ccc(Cl)nc34)CC2)c1F	human DGKα (Homo sapiens (Human))	5.70
Cn1c(=O)c(C#N)c(N2CCN(Cc3ccc(Cl)cc3O)CC2)c2nc(C#N)ccc21	human DGKα (Homo sapiens (Human))	6.68

Query: Consider the molecule shown here: C#CCn1c(=O)c([N+](=O)[O-])c(N2CCN(C(c3ccc(F)cc3)c3ccc(F)cc3OC)CC2)c2nc(C#N)ccc21 (single isomer, unassigned) [Example 127] What is its recorded pIC50?
Reply: 5.54

Query: I would be grateful if you could share the reported pIC50 for Cn1c(=O)c(C#N)c(N2CCN(C(C)(C)c3ccc(F)cc3)CC2)c2nc(Cl)ccc21 .
Reply: 4.70

Query: Reported pIC50 for C#CCn1c(=O)c([N+](=O)[O-])c(N2CCN(C(CC)c3ccc(F)cc3)CC2)c2nc(C#N)ccc21 (single isomer, unassigned) [Example 141] : what is it?
Reply: 6.24

Query: Reported pIC50, molecule Cn1c(=O)c(C#N)c(N2CCN(Cc3ccc(F)cc3)CC2)c2nc(Cl)ccc21 : ____
Reply: 6.02

Query: What does the record list as pIC50 for Cn1c(=O)c(C#N)c(N2CCN(Cc3cc(C#N)ccc3F)CC2)c2nc(Cl)ccc21 ?
Reply: 5.47

Query: pIC50 for COc1ccc(O)c(CN2CCN(c3c(C#N)c(=O)n(C)c4ccc(Cl)nc34)CC2)c1 ?
Reply: 6.31

====

- testTarget: human DGKζ (Homo sapiens (Human))
- Sequence (Q13574 other isoform, or with tags, fused parts or gaps): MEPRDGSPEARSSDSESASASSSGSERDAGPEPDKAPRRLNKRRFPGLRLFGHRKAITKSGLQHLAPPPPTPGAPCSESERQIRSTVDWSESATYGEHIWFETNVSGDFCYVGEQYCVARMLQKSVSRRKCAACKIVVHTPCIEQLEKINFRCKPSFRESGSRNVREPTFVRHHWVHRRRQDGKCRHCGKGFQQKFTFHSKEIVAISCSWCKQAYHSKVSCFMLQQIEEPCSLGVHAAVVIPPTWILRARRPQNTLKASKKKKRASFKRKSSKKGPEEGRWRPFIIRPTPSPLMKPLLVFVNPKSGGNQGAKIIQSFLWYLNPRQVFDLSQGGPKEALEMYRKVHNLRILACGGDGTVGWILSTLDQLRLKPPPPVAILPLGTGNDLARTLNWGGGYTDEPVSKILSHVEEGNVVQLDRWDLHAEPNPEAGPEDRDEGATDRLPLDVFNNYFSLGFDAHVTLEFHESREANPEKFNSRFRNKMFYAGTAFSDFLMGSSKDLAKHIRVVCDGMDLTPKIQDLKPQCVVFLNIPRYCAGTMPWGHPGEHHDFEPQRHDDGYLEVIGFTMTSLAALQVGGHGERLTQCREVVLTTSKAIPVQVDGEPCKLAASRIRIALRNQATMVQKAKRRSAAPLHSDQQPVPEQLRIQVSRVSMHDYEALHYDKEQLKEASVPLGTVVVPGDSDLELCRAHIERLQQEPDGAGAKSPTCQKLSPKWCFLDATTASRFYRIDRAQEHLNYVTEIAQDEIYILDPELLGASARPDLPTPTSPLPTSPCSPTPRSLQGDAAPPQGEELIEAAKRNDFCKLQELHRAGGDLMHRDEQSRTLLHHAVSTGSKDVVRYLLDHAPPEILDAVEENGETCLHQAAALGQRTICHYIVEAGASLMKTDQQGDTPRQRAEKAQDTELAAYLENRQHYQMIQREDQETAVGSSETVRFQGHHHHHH
- assayRemarks: DGKζ assay (detergent/lipid micelle substrate)
- Type: biochemical
- assayConditions: detergent/lipid micelle substrate; read-out: DGKζ IC50
pIC50: −log10 of the molar value.
Think of 5 as a floor: if pIC50 stands on it or above, it is Yes; beneath it, No.

Some solved cases for reference:
compound	class
Cn1c(=O)c(C#N)c(N2CCN(Cc3cccc4c3NCC4)CC2)c2nc(Br)ccc21 [Example 299]	No
Cn1c(=O)c(C#N)c(N2CCN(Cc3ccc(F)cc3O)CC2)c2nc(Br)ccc21 [Example 192]	No

Query: # check: pIC50 of Cn1c(=O)c(C#N)c(N2CCN(Cc3cc(F)cc(F)c3)CC2)c2nc(Cl)ccc21 [Example 291] is greater than or equal to 5
Reply: No

Query: Is the recorded value of pIC50 equal to or greater than 5 for this compound? C#CCn1c(=O)c([N+](=O)[O-])c(N2CCN(C(c3ccc(F)cc3)c3ccccc3O)CC2)c2nc(C#N)ccc21 (single isomer, unassigned) [Example 133]
Reply: Yes

Query: Identify whether the reported pIC50 of the following compound is 5 or greater: Cn1c(=O)c([N+](=O)[O-])c(N2CCN(C(c3ccc(F)cc3)c3ccc(F)cc3O)CC2)c2nc(C#N)ccc21 (centres unmarked) [Example 122]
Reply: Yes

Query: Evaluate Cc1cccc(OCc2cncc(C#N)c2)c1C(c1ccc(F)cc1)N1CCN(c2c([N+](=O)[O-])c(=O)n(C)c3ccc(Br)nc23)CC1 (single isomer, unassigned) [Example 89] : pIC50 at minimum 5?
Reply: No

Query: Decide: is the reported value of pIC50 for COCCn1c(=O)c([N+](=O)[O-])c(N2CCN(C3CCc4ccc(OC)cc43)CC2)c2nc(C#N)ccc21 (centres unmarked) [Example 146] equal to or greater than 5?
Reply: No

Query: Check if pIC50 >= 5 (inclusive). Item: CCn1ccc2c(CN3CCN(c4c(C#N)c(=O)n(C)c5ccc(Br)nc45)CC3)cccc21 [Example 225]
Reply: No

====

- testTarget: UniProtKB Q13574
- assayRemarks: DGKζ assay (detergent/lipid micelle substrate)
- Format: biochemical
- assayConditions: detergent/lipid micelle substrate; read-out: DGKζ IC50
property: pIC50
Convention used: pIC50 is expressed as -log10 of the molar concentration.

> print(dat)
                                   molecule  property  observedresult
1  CCC(c1ccc(F)cc1)N1CCN(c2c([N+](=O)[O-])c(=O)n(C)c3ccc(C#N)nc23)CC1 (racemic)     pIC50            5.03

Switching to the query record.
Query: // fetch UniProtKB Q13574 pIC50 for Cc1ccc2c(n1)c(N1CCN(Cc3cc(Br)ccc3O)CC1)c(C#N)c(=O)n2C
Reply: 4.35

====

IC50 by entry:
- Tested on: Jurkat AP1-luciferase Reporter
- assayRemarks: DGK AP1-Reporter Assay
- Assay type: cell-based
- assayConditions: Homo sapiens, Jurkat, read-out: API-Luciferase Reporter IC50, Table 3

Please review the entries below; each comes with its answer.
> print(dat)
                                   molecule  property  observedresult
1  COCCn1c(=O)c(C#N)c(N2CCN(C(c3ccc(F)cc3)c3ccc(F)cc3OC)CC2)c2nc(Br)ccc21 (racemic)      IC50         4120 nM
2  CC(c1ccc(F)cc1)N1CCN(c2c([N+](=O)[O-])c(=O)n(C)c3ccc(C#N)nc23)CC1 (stereo not shown) [Example 43]      IC50          400 nM
3  Cc1ccc2c(n1)c(N1CCN(Cc3cccc(Cl)c3O)CC1)c(C#N)c(=O)n2C      IC50          650 nM
4  Cn1c(=O)c(C#N)c(N2CCN(Cc3cccc4c3NC(=O)C4)CC2)c2nc(Br)ccc21      IC50         7930 nM
5  Cc1ccc(CN2CCN(c3c(C#N)c(=O)n(C)c4ccc(Br)nc34)CC2)c(O)c1      IC50          140 nM

Query: Fill blank: measured IC50 of the molecule COCCn1c(=O)c(C#N)c(N2CCN(C(c3ccc(F)cc3)c3ccc(F)cc3)CC2)c2nc(Br)ccc21 is ____.
Reply: 580 nM

Query: Recorded IC50 of Cn1c(=O)c([N+](=O)[O-])c(N2CCN(CC(O)c3ccc(F)cc3)CC2)c2nc(C#N)ccc21 (stereo not shown) , please.
Reply: 1600 nM
